Where do the numbers come from? From PubChem BioAssay (NCATS).

System: DFO2036
measurement.description: qHTS profiling for inhibitors of Plasmodium falciparum proliferation (AID 504749); also: nearly all actives have a fitted effect of over 60% in size
experimental.parameters: P. falciparum in erythrocytes, SYBR Green DNA, 72 h; series mostly up to 28.7 µM
Results filed as inconclusive are left out. Calls of active or inactive are those of the source. Calls follow the shape of the dose curve; as a rule, active = well fitted inhibition curve with a large enough effect; inconclusive = small, poorly fitted or top-dose-only effect; inactive = flat fitted curve, though single readings scatter.
Please answer using one outcome listed in True for active, False for inactive

Look up the recorded call for CO[C@H](C(=O)[C@@H](O)[C@@H](C)O)C1Cc2cc3cc(O[C@H]4C[C@@H](O[C@H]5C[C@@H](O)[C@H](O)[C@@H](C)O5)[C@@H](O)[C@@H](C)O4)c(C)c(O)c3c(O)c2C(=O)[C@H]1O[C@H]1C[C@@H](O[C@H]2C[C@@H](O[C@H]3C[C@](C)(O)[C@H](O)[C@@H](C)O3)[C@H](O)[C@@H](C)O2)[C@H](O)[C@@H](C)O1 (stereo partly drawn) in this test. True

Look up the recorded call for COC(=O)CCC(=O)CN in this test. False

Look up the recorded call for CCN(CC)Cc1cc(Nc2ccnc3cc(Cl)ccc23)ccc1O in this test. True

---

measurement.description: Primary redox qHTS assay for identification of artifact compounds. (AID 1845223);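 also: 0% = DMSO and 100% = reference compound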
experimental.parameters: Amplex Red/HRP redox cycling with DTT, fluorescence; series mostly up to 53.8 µM
Results filed as inconclusive are left out. Calls of active or inactive are those of the source. Calls follow the shape of the dose curve; as a rule, active = well fitted activation curve with a large enough effect; inconclusive = small, poorly fitted or top-dose-only effect; inactive = flat fitted curve, though single readings scatter.
assay.metric: redox activity (% of DA3003)

molecule	reported
CCC(C)(O)C(O)C(=O)OCc1ccc(O[C@@H]2O[C@H](CO)[C@@H](O)[C@H](O)[C@H]2O)c(OC)c1 (stereo partly drawn)	inactive
CC1OC(OC2C(C)OC(OC3C(OC(=O)/C=C/c4ccc(O)cc4)C(CO)OC(OC4(COC(=O)/C=C/c5ccc(O)cc5)OC(CO)C(O)C4O)C3OC3OCC(O)(CO)C3O)C(O)C2O)C(O)C(O)C1O (stereo not drawn)	-13.7% [at 11.5 µM] (inactive)
CC(=O)O[C@@H]1C[C@@]23C[C@@]24CC[C@H](OC2OC[C@@H](O)[C@H](O)[C@H]2O)C(C)(C)[C@@H]4CC[C@H]3[C@]2(C)CC3OC4(C[C@@H](C)C3[C@@]12C)OCC1(C)OC14 (stereo partly drawn)	inactive
CC1(C)CC[C@]2(C(=O)O)CC[C@]3(C)C(=CCC4[C@@]5(C)CCC(O[C@@H]6OC[C@H](O)[C@H](O)[C@H]6O[C@@H]6O[C@H](CO)[C@@H](O)[C@H](O)[C@H]6O)[C@@](C)(CO)C5CC[C@]43C)[C@@H]2C1 (stereo partly drawn)	inactive

Provide one value: measured redox activity (% of DA3003) of C=C1[C@@H]2[C@H]3OC(=O)C(=C)[C@@H]3CC[C@@](C)(O)[C@@H]2C[C@@H]1O[C@@H]1O[C@H](CO)[C@@H](O)[C@H](O)[C@H]1O inactive

Provide one value: measured redox activity (% of DA3003) of O=c1c2cccnc2n(-c2cccc([N+](=O)[O-])c2)c(=O)n1Cc1ccncc1 inactive

Provide one value: measured redox activity (% of DA3003) of O=C1CC(c2ccc([N+](=O)[O-])cc2)=NN1c1ccccc1 inactive

Provide one value: measured redox activity (% of DA3003) of CC1CCC2(C(=O)OC3OC(CO)C(O)C(O)C3O)CCC3(C(=O)O)C(=CCC4C5(C)CCC(OC6OC(C)C(O)C(O)C6O)C(C)(C)C5CCC43C)C2C1C (stereo not drawn) inactive

---

measurement.description: S16 Schwann cell PMP22 intronic element beta-lactamase assay (AID 624044); also: nearly all actives have a fitted effect of over 15% in size
experimental.parameters: S16 rat Schwann cells, PMP22 element beta-lactamase FRET, 24 h; series mostly up to 38.3 µM
Experimental: Description: Charcot-Marie-Tooth-Association [CMTA] National Center for Advancing Translational Sciences [NCATS] […] S16 Schwann cell PMP22 intronic element beta-lactamase assay The beta-Lac-expressing S16 cells were seeded in black clear-bottom 1536 well plates at between 500-750 cells/6uL in DMEM medium containing 10% FBS, w/o phenol red. […] The concentration-effect curves were then classified based on curve quality (r2), response magnitude and degree of measured activity.
Results filed as inconclusive are left out. Active and inactive are the calls of the source. The call rests on the fitted dose curve.
Please answer using one outcome listed in 1 (yes) = active, 0 (no) = inactive

Look up the recorded call for Cc1ccccc1OCC(O)CNCCOc1ccc(C(N)=O)cc1 (centres undefined) in this test. 0 (no)

Look up the recorded call for CCCCCCCCCCCC[n+]1ccc2ccccc2c1 in this test. 1 (yes)

Look up the recorded call for Cc1cc(C(=O)NNCc2ccccc2)no1 in this test. 0 (no)

Look up the recorded call for CCNC(=O)[C@@H]1CCCN1C(=O)[C@H](CCCN=C(N)N)NC(=O)[C@H](CC(C)C)NC(=O)[C@@H](Cc1c[nH]c2ccccc12)NC(=O)[C@H](Cc1ccc(O)cc1)NC(=O)[C@H](CO)NC(=O)[C@H](Cc1c[nH]c2ccccc12)NC(=O)[C@H](Cc1cnc[nH]1)NC(=O)[C@@H]1CCC(=O)N1 in this test. 1 (yes)

Look up the recorded call for COCC(=O)Nc1cc(Sc2ccccc2)ccc1N=C(NC(=O)OC)NC(=O)OC in this test. 0 (no)

Look up the recorded call for CCOC(C)=O in this test. 0 (no)

Look up the recorded call for O=S(=O)(O)c1cc(O)c2c(N=Nc3ccc(Nc4ccccc4)c4c(S(=O)(=O)O)cccc34)cc(S(=O)(=O)O)cc2c1 in this test. 0 (no)

Look up the recorded call for CC[N+](C)(C)Cc1ccccc1Br in this test. 0 (no)

Look up the recorded call for NC(=O)c1ncn(C2OC(CO)C(O)C2O)n1 (centres undefined) in this test. 0 (no)

---

Test system: NIH3T3
measurement.description: qHTS assay to identify novel small-molecules to repurpose for Merkel cell carcinoma treatment (AID 1296009); also: nearly all actives have a fitted effect of over 60% in size
experimental.parameters: MCC and control cell lines, CellTiter-Glo viability, 72 h; at 44.8 µM (top of the series) unless noted
Results filed as inconclusive are left out. The source made the active and inactive calls. The call rests on the fitted dose curve; in most records, active means well fitted inhibition curve with a large enough effect; inconclusive means small, poorly fitted or top-dose-only effect; inactive means flat fitted curve, though single readings scatter.
assay.metric: outcome

molecule	outcome
C=C(C)[C@@H](C)[C@H]1O[C@]23C[C@]4(CO2)C(CCC2[C@@]5(C)CC[C@H](O[C@@H]6OC[C@H](O)[C@H](O[C@@H]7O[C@H](CO)[C@@H](O)[C@H](O)[C@H]7O)[C@H]6O[C@@H]6O[C@@H](CO)[C@H](O)[C@H]6O)C(C)(C)C5CC[C@]24C)C3[C@@](C)(O)[C@@H]1OC(C)=O (stereo partly specified)	inactive [at 9.27 µM]
C[C@@H]1O[C@@H](O[C@H]2[C@H](OC(=O)[C@]34CCC(C)(C)C[C@H]3C3=CCC5[C@@]6(C)CC[C@H](O[C@@H]7O[C@H](CO[C@@H]8OC[C@H](O)[C@H](O)[C@H]8O)[C@@H](O)[C@H](O)[C@H]7O)C(C)(C)C6CC[C@@]5(C)[C@]3(C)C[C@H]4O)OC[C@@H](O)[C@@H]2O)[C@H](O)[C@H](O)[C@H]1O[C@@H]1OC[C@H](O)[C@H](O[C@@H]2OC[C@@H](O)[C@H](O)[C@H]2O)[C@H]1O (stereo partly specified)	inactive [at 9.27 µM]
NCc1c[nH]c(=S)n1C1CCc2c(F)cc(F)cc2C1 (stereo unspecified)	inactive
CC(=O)O[C@@H]1C[C@]2(C)[C@@]3(CCC4[C@@]5(C)CC[C@H](O[C@@H]6O[C@H](C(=O)O)[C@@H](O)[C@H](O[C@@H]7O[C@H](CO)[C@H](O)[C@H](O)[C@H]7O[C@@H]7O[C@@H](C)[C@H](O)[C@@H](O)[C@H]7O[C@@H]7OC[C@](O)(CO)[C@H]7O)[C@H]6O[C@@H]6O[C@H](CO)[C@H](O)[C@H](O)[C@H]6O)C(C)(C)C5CC[C@]42C)O[C@@H](O)[C@]12C3CC(C)(C)[C@@H](OC(=O)/C=C/c1ccc(O)c(O)c1)[C@@H]2OC(=O)/C=C/c1ccccc1 (stereo partly specified)	inactive [at 9.27 µM]

Provide one value: measured outcome of COCC(=O)N1CCc2cc(-c3csc(NC(=O)c4cc(OC)cc(OC)c4)n3)ccc21 inactive

---

target.system: Bile acid receptor (Homo sapiens)
measurement.description: qHTS assay for small molecule antagonists of farnesoid X receptor signaling (AID 588526); also: potency is read from the fitted curve at half-maximal effect
experimental.parameters: HEK293T FXR-UAS-bla, beta-lactamase ratio, antagonist mode; series mostly up to 76.7 µM
Source text: NIH Chemical Genomics Center [NCGC] U.S. Environmental Protection Agency [EPA] National Institutes of Environmental Health Sciences [NIEHS] National Toxicology Program [NTP] […] NCGC Assay Protocol Summary Using a beta-lactamase reporter-gene under control of Farnesoid X receptor (FXR) response element, a cell-based assay [GeneBLAzer FXR-UAS-bla assay developed by Invitrogen] was used to measure FXR ligands signaling. […] Detection; Fluorescence; Envision plate reader
Records with an inconclusive call do not appear. The source made the active and inactive calls. Calls come from the whole dose curve.
assay.metric: Potency

                                   compound          reported
0  CC(C)(C)NC(=O)[C@@H]1C[C@@H]2CCCC[C@@H]2CN1C[C@@H](O)[C@H](Cc1ccccc1)NC(=O)[C@H](CC(N)=O)NC(=O)c1ccc2ccccc2n1  44.7 µM (active)
1             CCCCC/C=C\C/C=C\CCCCCCCC(=O)O          inactive
2                CCCCCCCC/C=C\CCCCCCCC(=O)O          inactive
3               CC(O)CO (centres undefined)          inactive
